B1: TRIM15 (parent)
chain: LSQMGAQSSGKILLCPLCQEEEQA

Variants of: B1
Experiment: protein stability index of a GFP-peptide fusion (GPS, HEK-293T) (PSI 1-6); higher = more stable;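 also: lentivirally expressed fusions sorted by FACS into six bins by GFP to DsRed ratio, PSI derived from sequencing read proportions per bin multiplied by bin number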
Conditions: c terminus: a fixed tail appended
property.measured: protein stability index
Answers are plain numbers.

Here's what some known entries look like.
>>> val("S8A")
4.01
>>> val("L14Q")
4.52
>>> val("Q19M")
3.19
>>> val("E21W")
2.89
>>> val("I12L")
4.04
>>> val("G10K")
3.71

Required: protein stability index, one value per variant below.
1. E22K
2. A24C
3. A6R
4. L17K
5. M4S

[3.74, 3.14, 3.17, 3.6, 4.08]

Required: protein stability index, one value per variant below.
1. E22W
2. Q19T
3. K11T

1. 2
2. 3.83
3. 3

Required: protein stability index, one value per variant below.
1. I12G
2. A24F
3. K11A
4. E22D
5. S8G

4.59
2.55
3.14
3.41
3.93

Required: protein stability index, one value per variant below.
1. Q19D
2. L17C
3. A24G

4.16
3.76
3.51

Required: protein stability index, one value per variant below.
1. S9Y
2. E22A
3. L14W
4. Q23H
5. G10P
6. E20K
7. M4Y

1: 3.9; 2: 4.08; 3: 2.93; 4: 3.96; 5: 3.78; 6: 3.58; 7: 3.76

Required: protein stability index, one value per variant below.
1. I12N
2. L1A
3. P16K
4. I12T
5. E20H

3.09
3.1
4.19
3.42
2.65

Required: protein stability index, one value per variant below.
1. C18R
2. G5P
3. E20I
4. L17M
5. L13G

[4.21, 2.76, 2.79, 3.19, 4.65]

Required: protein stability index, one value per variant below.
1. E21I
2. P16Q

[2.26, 4.22]
